What IC50 was measured for each of the following?
# measured.on: mouse ATX (Mus musculus)
# Construct: purchased Sino Biological
# measurement.protocol: Amplex Red Lyso-phospholipase D assay, mouse ATX
# Format: biochemical
# conditions: in vitro IC50 (mATX 2nM), Table S2, mATX 2nM
# Procedure: All compounds proposed were assessed for their ATX inhibitory activity in vitro using the Amplex Red assay. The Amplex Red Lyso-phospholipase D assay is a fluorometry-based assay providing a sensitive method for measuring Lyso-phospholipase D (ATX) activity in vitro. In this enzyme-coupled assay, ATX activity is monitored indirectly using 10-acetyl-3,7-dihydrophenoxazine (Amplex Red reagent), a sensitive fluorogenic probe for H2O2. […]
Answer format: numeric, µM implied, no suffix.

Exam item: Field request: IC50 | item: CCOC(=O)c1sc(SCc2ccccc2)c2c1CC(c1ccc(C)cc1)CC2O (stereo not drawn)
Marked response: 15

Exam item: Note, next up: `CCOC(=O)c1c(CN2CCCC2)n(-c2ccccc2)c2cc(Br)c(OC)cc12`
Marked response: 57

Exam item: Note, next up: COc1ccccc1NC(=S)N1CCn2cccc2C1c1ccc(OC)c(OC)c1 (stereo not drawn)
Marked response: 60
